pIC50: −log10 of the molar value.
Let's go through some recorded pIC50 values for EGFR (human) together.

>>> reported_value("COc1cc2nccc(Oc3ccccc3N)c2cc1OC")
"> 5.00"
>>> reported_value("COc1cc2nccc(Oc3ccc(C(=O)c4ccc(C(C)(C)C)cc4)cc3)c2cc1OC")
"< 4.00"

IN: // fetch EGFR (human) pIC50 for "COc1cc2nccc(Oc3ccc(NC(=O)C4CCCCC4)cc3)c2cc1OC"
OUT: < 4.00

Source: the Kinase Knowledgebase extract (Sharma et al. 2016)
